Source of measurements: patent US20230026808A1

# Procedure text: in vivo
# Details: female, monkey, iv, 10 mg/kg/day
Recorded metric: AUC(0-inf)

>>> meas_value("Cc1ccc(Nc2nccc(N(C)c3ccc4c(C)n(C)nc4c3)n2)cc1S(N)(=O)=O [pazopanib]")
"167 µg·h/mL"

====

# Procedure text: in vivo
# Details: male, monkey, iv, 10 mg/kg/day
Recorded metric: AUC(0-inf)

>>> meas_value("Cc1ccc(Nc2nccc(N(C)c3ccc4c(C)n(C)nc4c3)n2)cc1S(N)(=O)=O [pazopanib]")
"143 µg·h/mL"

====

# Procedure text: in vivo
# Details: male, monkey, iv, 10 mg/kg/day
Recorded metric: Cmax (µg/mL)

>>> meas_value("Cc1ccc(Nc2nccc(N(C)c3ccc4c(C)n(C)nc4c3)n2)cc1S(N)(=O)=O")
85
